assayRemarks: physchem
Type: physicochemical
conditionLabel: pH 6
experimentalEndpoint: pKa
Answers are plain numbers.

Request the reported pKa associated with O=C1NC(Cc2ccc(O)cc2)C(=O)NC1Cc1ccc(O)cc1 (stereo not shown)
9.9
